assay.protocol: S. cerevisiae growth modulation with rapamycin, primary screen, strain BY4716, OD600, 96 h (AID 1091); further: test concentration not given here
particulars: higher = more signal, called active from +8 up or from −8 down
Recorded z-score determines the label; the label ranges are low (below -0.3), intermediate (-0.3 to below 0.5), high (0.5 or more)

- compound: "C=CCC(OC(C)=O)[C@@H]1[C@@H](N(Cc2ccc(-c3ccccc3)cc2)C(=O)c2cccc3ccccc23)c2cc(OCCCO)ccc2N1C(=O)Cc1ccc2ccccc2c1 (some centres undefined)"
  label: "low"
- compound: "CCOC(=O)C[C@H]1[C@H](OC(=O)c2ccc(-c3ccccc3)cc2)[C@@H](NC(=O)c2ccc3ccccc3n2)c2cc(OCCCO)ccc2N1C(=O)c1ccccc1"
  label: "high"
- compound: "O=C(CS)NCCCCCCNC(=O)[C@H]1C[C@H]2C(=O)N[C@@H](Cc3ccccc3)C(=O)N2[C@H]1c1cccc(OCCO)c1"
  label: "high"
- compound: "C=CCC(OC(C)=O)[C@@H]1[C@@H](N(Cc2cc3ccccc3o2)C(=O)c2ccc(C)cc2)c2cc(OCCCO)ccc2N1C(=O)Cc1ccc2ccccc2c1 (some centres undefined)"
  label: "intermediate"
- compound: "C=C(CCCC)/C(=C/C[C@@H](OC(C)=O)c1ccc(CO)o1)c1cc(C(=O)OC)ccc1OC"
  label: "intermediate"

[in] Quick check: band for COC(=O)[C@H](Cc1ccccc1)N1CC(/C=C/C2CC2)=C[C@@H]1[C@@H](O)Cc1ccccc1
[out] intermediate

[in] Which band does CC1CC/C=C\[C@H]2OC34C=CCN(C(C)C)C(=O)[C@H]3N(CCCCCO)C(=O)[C@@H]4C2C(=O)O1 (some centres undefined) fall in?
[out] low

[in] Category lookup for the compound C=C(C(=O)CC[C@H](OC(=O)c1cccnc1)c1ccc(CO)o1)C(C)C
[out] low
